# Protocol summary: In vivo pharmacokinetic studies of S-HM-3
# Set-up: species or system Sprague Dawley rats
# Test conditions: rat, background statement of the abstract
Peptide text beside a SMILES is read from it. * marks the point of attachment. Stearoyl = CCCCCCCCCCCCCCCCCC(=O)*
Endpoint name: half-life (min)
I only need the number, in min, no unit after it.

# get_value(readout='half-life', item= CCCCCCCCCCCCCCCCCC(=O)N[C@H](C(=O)N[C@H](C(=O)N[C@@H](CCCNC(=N)N)C(=O)N[C@@H](CCCNC(=N)N)C(=O)N[C@@H](C)C(=O)N[C@@H](CC(=O)O)C(=O)N[C@@H](CCCNC(=N)N)C(=O)N[C@@H](C)C(=O)N[C@@H](C)C(=O)N[C@H](C(=O)N1CCC[C@H]1C(=O)NCC(=O)NCC(=O)NCC(=O)NCC(=O)N[C@@H](CCCNC(=N)N)C(=O)NCC(=O)N[C@@H](CC(=O)O)C(=O)O)C(C)C)C(C)C)[C@@H](C)CC [S-HM-3] (Stearoyl-IVRRADRAAVPGGGGRGD-OH; N-terminus and C-terminus assumed) ) 25
